# Test system: BDF1 mice, B16 melanoma ip, median survival T/C
# protocol-details: NCI In Vivo Anticancer Drug Screen. Data for tumor model B16 Melanoma (intraperitoneal) in B6D2F1 (BDF1) mice
# run-parameters: endpoint: median survival time; dose: 4.0 mg/kg/injection; schedule: Q01DX009 (ip); vehicle: saline with Tween-80
# Procedure: The antitumor activity of compounds was measured in mice bearing transplantable tumors. Survival or tumor size were measured and the results are expressed as the measurement made in the treated group (T) divided by the measurement made in the vehicle treated control group (C). The tumor model used in this assay is B16 Melanoma (intraperitoneal) in B6D2F1 (BDF1) mice
Toxic doses and inconclusive results are not listed. How the source made its calls: active means survival T/C of 150% or more; inactive means T/C below 125% in these data.
Outcomes: T for active, F for inactive

[
  {
    "compound": "N[C@@H](Cc1ccc(N(CCCl)CCCl)cc1)C(=O)O",
    "class-assignment": "T"
  },
  {
    "compound": "COc1cc2c(=O)oc3c(OC)c(O)cc4c(=O)oc(c1OC)c2c34",
    "class-assignment": "F"
  },
  {
    "compound": "C=C1N(C)c2ccccc2C1(C)C",
    "class-assignment": "F"
  },
  {
    "compound": "CCCCCCCCCCCCCCCC[N+](C)(C)c1nc(Cl)nc(Cl)n1",
    "class-assignment": "F"
  },
  {
    "compound": "CCOC(=O)C(CC(C)C)NC(=O)C(Cc1ccc(N(CCCl)CCCl)cc1)NC(C)=O (stereo not given)",
    "class-assignment": "F"
  }
]
